# STUDY TARGET: G protein-coupled receptor 52 (Rattus norvegicus)
# Sequence (A0A8I5ZQK1 whole entry): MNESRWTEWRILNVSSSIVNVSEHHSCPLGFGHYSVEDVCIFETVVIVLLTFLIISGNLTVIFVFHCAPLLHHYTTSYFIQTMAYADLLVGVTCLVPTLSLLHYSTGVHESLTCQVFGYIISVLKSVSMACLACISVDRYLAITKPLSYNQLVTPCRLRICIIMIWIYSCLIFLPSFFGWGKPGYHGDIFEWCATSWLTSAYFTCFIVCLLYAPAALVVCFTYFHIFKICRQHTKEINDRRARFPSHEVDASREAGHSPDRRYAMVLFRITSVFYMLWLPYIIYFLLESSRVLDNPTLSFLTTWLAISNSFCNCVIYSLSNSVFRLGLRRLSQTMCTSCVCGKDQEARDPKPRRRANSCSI
# EXPERIMENT NOTES: Agonist activity at GPR52 in rat Striatal neuron assessed as increase in intracellular cAMP level […] by Alphascreen assay
# Assay type: cell-based
pEC50: −log10 of the molar value.
VALUE KIND: pEC50

INSERT INTO assay_data (compound, value_kind, result_value) VALUES
  ('Cc1cc(-n2nc(Cc3cc(F)cc(C(F)(F)F)c3)nc2C)ccc1C(N)=O [TP-024]', 'pEC50', 6.82);

* * *

# STUDY TARGET: Voltage-gated L-type calcium channel (Homo sapiens, UniProt O60840+Q01668+Q13698+Q13936)
# EXPERIMENT NOTES: Inhibition of Calcium channel L-type (unknown origin) at 10 uM in presence of benzothiazepine relative to control
# Format: protein assay
# CONDITION CONTEXT: probe benzothiazepine
VALUE KIND: inhibition at 10 µM (%)

INSERT INTO measurements (entry_smiles, unit_of_measurement, result_value) VALUES
  ('Cc1cc(-n2nc(Cc3cc(F)cc(C(F)(F)F)c3)nc2C)ccc1C(N)=O', '%', 19);

* * *

# STUDY TARGET: Xanthine oxidase (xanthine dehydrogenase/oxidase) (Homo sapiens, UniProt P47989)
# Sequence (P47989 whole entry): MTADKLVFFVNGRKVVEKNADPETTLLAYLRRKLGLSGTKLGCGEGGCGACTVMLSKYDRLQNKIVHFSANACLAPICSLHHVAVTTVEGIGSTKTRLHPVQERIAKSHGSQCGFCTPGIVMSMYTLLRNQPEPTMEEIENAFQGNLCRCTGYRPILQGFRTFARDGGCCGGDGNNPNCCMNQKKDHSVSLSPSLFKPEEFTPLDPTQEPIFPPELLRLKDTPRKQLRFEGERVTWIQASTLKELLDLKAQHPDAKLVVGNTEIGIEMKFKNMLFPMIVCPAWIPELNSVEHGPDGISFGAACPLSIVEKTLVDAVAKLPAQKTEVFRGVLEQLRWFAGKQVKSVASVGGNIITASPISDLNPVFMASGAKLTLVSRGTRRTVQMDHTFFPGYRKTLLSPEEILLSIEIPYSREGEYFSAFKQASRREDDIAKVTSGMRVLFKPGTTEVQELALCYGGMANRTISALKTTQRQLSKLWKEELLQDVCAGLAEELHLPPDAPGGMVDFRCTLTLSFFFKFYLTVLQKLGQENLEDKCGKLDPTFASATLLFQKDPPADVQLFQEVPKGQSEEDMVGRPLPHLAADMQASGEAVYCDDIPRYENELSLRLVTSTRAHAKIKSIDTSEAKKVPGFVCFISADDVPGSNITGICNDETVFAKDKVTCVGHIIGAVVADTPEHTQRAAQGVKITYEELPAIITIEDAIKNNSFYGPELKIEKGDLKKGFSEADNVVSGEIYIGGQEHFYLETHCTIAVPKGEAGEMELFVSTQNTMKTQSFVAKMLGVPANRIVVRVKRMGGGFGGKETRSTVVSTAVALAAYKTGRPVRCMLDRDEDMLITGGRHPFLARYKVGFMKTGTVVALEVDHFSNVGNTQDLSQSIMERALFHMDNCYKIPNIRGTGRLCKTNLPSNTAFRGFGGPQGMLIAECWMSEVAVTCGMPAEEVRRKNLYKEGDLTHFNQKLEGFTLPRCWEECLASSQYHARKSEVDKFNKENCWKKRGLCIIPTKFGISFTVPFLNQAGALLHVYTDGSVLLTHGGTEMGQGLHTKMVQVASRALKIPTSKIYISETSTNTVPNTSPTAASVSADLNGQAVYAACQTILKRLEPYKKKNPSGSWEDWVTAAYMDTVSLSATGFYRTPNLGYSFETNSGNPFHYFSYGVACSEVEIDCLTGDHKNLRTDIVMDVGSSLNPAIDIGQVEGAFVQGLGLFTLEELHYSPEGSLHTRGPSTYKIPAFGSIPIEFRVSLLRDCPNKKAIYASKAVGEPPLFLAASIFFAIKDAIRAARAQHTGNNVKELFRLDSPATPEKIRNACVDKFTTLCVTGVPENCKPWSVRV
# EXPERIMENT NOTES: Inhibition of Xanthine oxidase (unknown origin) at 10 uM relative to control
VALUE KIND: inhibition at 10 µM (%)

INSERT INTO results (entry_smiles, study_target, value_kind, result_value) VALUES
  ('Cc1cc(-n2nc(Cc3cc(F)cc(C(F)(F)F)c3)nc2C)ccc1C(N)=O', 'Xanthine oxidase (xanthine dehydrogenase/oxidase) (Homo sapiens, UniProt P47989)', 'inhibition at 10 µM', 10);

* * *

# STUDY TARGET: MAO-B (amine oxidase [flavin-containing] B) (Homo sapiens, UniProt P27338)
# Sequence (P27338 whole entry): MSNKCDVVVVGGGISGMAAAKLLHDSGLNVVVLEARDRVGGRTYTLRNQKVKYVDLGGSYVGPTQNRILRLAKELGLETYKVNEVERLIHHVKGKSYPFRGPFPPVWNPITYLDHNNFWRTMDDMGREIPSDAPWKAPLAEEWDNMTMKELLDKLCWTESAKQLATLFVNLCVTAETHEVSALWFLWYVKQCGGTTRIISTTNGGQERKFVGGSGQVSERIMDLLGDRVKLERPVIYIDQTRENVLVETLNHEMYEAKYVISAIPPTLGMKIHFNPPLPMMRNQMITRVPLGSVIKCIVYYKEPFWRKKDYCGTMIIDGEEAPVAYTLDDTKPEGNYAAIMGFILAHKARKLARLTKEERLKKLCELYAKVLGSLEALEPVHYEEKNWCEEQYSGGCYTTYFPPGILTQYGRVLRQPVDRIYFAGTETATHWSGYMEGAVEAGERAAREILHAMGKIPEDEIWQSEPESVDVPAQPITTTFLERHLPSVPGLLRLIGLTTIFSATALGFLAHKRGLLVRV
# EXPERIMENT NOTES: Inhibition of MAO-B (unknown origin) at 10 uM relative to control
VALUE KIND: inhibition at 10 µM (%)

INSERT INTO results (entry_smiles, unit_of_measurement, result_value) VALUES
  ('Cc1cc(-n2nc(Cc3cc(F)cc(C(F)(F)F)c3)nc2C)ccc1C(N)=O', '%', 26);
